Experiment: Alkaline Phosphatase Assay
Details: pH 9.8; 37 °C
property.measured: pIC50
Convention used: pIC50 is expressed as -log10 of the molar concentration.

Exercise: GET /values?readout=pIC50&item= `COc1ccc(/C=C/C(=O)/C(=N/Nc2ccc(S(N)(=O)=O)cc2)N2CCOCC2)cc1`
Solution: 6.48

Value source: BindingDB's records for doi:10.1016/j.bioorg.2017.01.003
